Origin of values: paper PMC9961948

- target_entity: cytochrome c oxidase (CcO) purified from heart mitochondria (Bos taurus, UniProt P00396+P07471+P68530)
- Construct: Cytochrome c oxidase was purified from the heart mitochondria of Bos taurus; from tissue; host or cells: bovine heart mitochondria
- test_details: Cytochrome oxidase activity of solubilized mitochondrial CcO (oxygen uptake)
- Assay type: biochemical
- experimental_conditions: solubilized bovine heart CcO 20 nM; oxygen uptake, Clark electrode, 25 °C; BM 50 mM Hepes/Tris pH 7.6, 50 mM KCl, 1 mM (0.05%) DM; 5 mM ascorbate, 0.1 mM TMPD, 10 μM cytochrome c; fit by Equation (1); read-out: Inhibition of CcO, Solubilized, Ki(app)
assay_metric: Ki (mM)

>>> recorded_measurement("Ac-WVGMALENRKLKKDRLKVLKMLRWT-NH2 [A1]")
0.0208
